- Test system: SW-620 colon
- ASSAY OVERVIEW: NCI tumour cell line growth inhibition, 48 h
PROPERTY LABEL: TGI

Inquiry: Suppose we examine the compound C=CC(=O)N1C/C(=C\c2ccc(F)cc2)C(=O)/C(=C/c2ccc(F)cc2)C1 ; what TGI value has been reported?
Reply text: > 100 µM

More entries:
Inquiry: Suppose we examine the compound O=C(/C=C/c1cccs1)Nc1ncc(Cc2ccccc2F)s1 ; what TGI value has been reported?
Reply text: > 100 µM

Inquiry: Suppose we examine the compound COc1cccc2c1C(=O)c1c(O)c3c(c(O)c1C2=O)C[C@](O)(C(=O)CO)CC3OC1CC(N)C(OC2CCCCO2)C(C)O1 (some centres not stated) ; what TGI value has been reported?
Reply text: 6.48 µM

Inquiry: Suppose we examine the compound O/N=C1/CCCCC1NO (configuration not stated) ; what TGI value has been reported?
Reply text: > 100 µM

Inquiry: Suppose we examine the compound Cc1ccc(C)c(NC(=O)CCc2n[nH]c(=S)o2)c1 ; what TGI value has been reported?
Reply text: > 100 µM

Inquiry: Suppose we examine the compound Cc1cc(Br)cc(C)c1NC(=O)C(=O)C(C(=O)c1ccc(Cl)c(Cl)c1)C1OC(=O)c2ccccc21 (configuration not stated) ; what TGI value has been reported?
Reply text: > 100 µM

Inquiry: Suppose we examine the compound NC(=O)Cn1c(=O)[nH]c(=O)c2[nH]cnc21 ; what TGI value has been reported?
Reply text: > 100 µM

Inquiry: Suppose we examine the compound N#CCc1nc2c(s1)C(=O)c1ccccc1C2=O ; what TGI value has been reported?
Reply text: 34.8 µM

Inquiry: Suppose we examine the compound Nc1nc(Cl)cc(NCCCCCCCCCCNc2cc(Cl)nc(N)n2)n1 ; what TGI value has been reported?
Reply text: > 100 µM

Inquiry: Suppose we examine the compound Cc1cccc(/C=N/NC(=S)NC(C)(C)C)n1 ; what TGI value has been reported?
Reply text: > 100 µM

Source: PubChem BioAssay (NCI)
